target-or-system: Sodium-dependent serotonin transporter (Homo sapiens)
Sequence (P31645 whole entry): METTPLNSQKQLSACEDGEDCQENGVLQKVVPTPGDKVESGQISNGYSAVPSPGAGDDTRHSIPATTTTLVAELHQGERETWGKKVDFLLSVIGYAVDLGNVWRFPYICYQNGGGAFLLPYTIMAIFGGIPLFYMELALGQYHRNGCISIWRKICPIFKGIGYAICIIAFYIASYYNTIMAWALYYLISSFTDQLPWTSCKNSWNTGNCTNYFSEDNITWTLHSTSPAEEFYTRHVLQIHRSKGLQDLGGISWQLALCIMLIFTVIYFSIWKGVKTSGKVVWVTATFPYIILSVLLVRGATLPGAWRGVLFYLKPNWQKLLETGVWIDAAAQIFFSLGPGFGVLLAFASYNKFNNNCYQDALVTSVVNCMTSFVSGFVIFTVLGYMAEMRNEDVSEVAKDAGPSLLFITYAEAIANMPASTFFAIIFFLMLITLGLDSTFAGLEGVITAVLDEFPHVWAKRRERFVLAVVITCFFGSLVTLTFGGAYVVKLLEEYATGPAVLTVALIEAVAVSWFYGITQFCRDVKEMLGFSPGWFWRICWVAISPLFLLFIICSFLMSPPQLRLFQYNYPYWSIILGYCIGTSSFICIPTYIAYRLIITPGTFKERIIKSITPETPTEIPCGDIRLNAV
test-name: Inhibitory activity against human SERT transfected in HEK293 cells
Type: cell-based
Reported IC50 values are given for each entry in this list.

{"compound": "NCCc1c[nH]c2ccc(OCCOCCOCCS)cc12", "target-or-system": "Sodium-dependent serotonin transporter (Homo sapiens)", "display-unit": "µM", "IC50": 115}
{"compound": "O=C(CCCCC1SCC2NC(=O)NC21)NCCN1CC=C(c2c[nH]c3ccccc23)CC1 (configuration not stated)", "target-or-system": "Sodium-dependent serotonin transporter (Homo sapiens)", "display-unit": "µM", "IC50": 0.002}

* * *

target-or-system: Sodium-dependent serotonin transporter (Homo sapiens)
test-name: Inhibitory activity of compound bound to streptavidin-conjugated quantum dots against human SERT transfected in HEK293 cells
Format: cell-based
Reported IC50 values are given for each entry in this list.

{"molecule": "O=C(CCCCC1SCC2NC(=O)NC21)NCCN1CC=C(c2c[nH]c3ccccc23)CC1 (configuration not stated)", "target-or-system": "Sodium-dependent serotonin transporter (Homo sapiens)", "IC50": "0.03 µM"}
{"molecule": "NCCc1c[nH]c2ccc(OCCOCCOCCS)cc12", "target-or-system": "Sodium-dependent serotonin transporter (Homo sapiens)", "IC50": "99 µM"}

From: ChEMBL document CHEMBL1141947
